Give TSSK2(h) % activity for every item shown.
Target: TSSK2(h) (Homo sapiens)
Sequence (Q96PF2 1-358): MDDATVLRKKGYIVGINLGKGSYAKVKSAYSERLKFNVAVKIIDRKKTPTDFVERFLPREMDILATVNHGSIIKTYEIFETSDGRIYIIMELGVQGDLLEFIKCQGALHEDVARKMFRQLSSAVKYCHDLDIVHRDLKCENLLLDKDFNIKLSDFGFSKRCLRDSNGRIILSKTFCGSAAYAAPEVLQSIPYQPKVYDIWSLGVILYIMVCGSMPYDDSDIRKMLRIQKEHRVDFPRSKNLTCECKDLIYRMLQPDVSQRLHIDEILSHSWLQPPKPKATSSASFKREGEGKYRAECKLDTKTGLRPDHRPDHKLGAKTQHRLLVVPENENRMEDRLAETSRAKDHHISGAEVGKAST
Assay: Kinase Profiling Assay
Type: biochemical
Conditions: 100 μM peptide
Protocol: Every kinase activity measurement was conducted in duplicate. In addition to determining the IC50 of the compound, the specificity of MK2 inhibitory peptides was assessed by examining activities of all 266 human kinases available for testing in the Millipore kinase profiling service (Table 1).
Number plus unit, in that order.

Entry KAFAKLAARLYRKALARQLGVAA [MMI-0400] has what TSSK2(h) % activity?
94%

Entry YARAAARQARAKALNRQLGVA (Mammalian) [MMI-0200] has what TSSK2(h) % activity?
91%

Entry HRRIKAWLKKIKALARQLGVAA (Mammalian) [MMI-0500] has what TSSK2(h) % activity?
92%

Entry FAKLAARLYRKALARQLGVAA [MMI-0300] has what TSSK2(h) % activity?
98%

* * *

Molecular target: CLK3(h) (Homo sapiens)
Sequence (P49761 whole entry): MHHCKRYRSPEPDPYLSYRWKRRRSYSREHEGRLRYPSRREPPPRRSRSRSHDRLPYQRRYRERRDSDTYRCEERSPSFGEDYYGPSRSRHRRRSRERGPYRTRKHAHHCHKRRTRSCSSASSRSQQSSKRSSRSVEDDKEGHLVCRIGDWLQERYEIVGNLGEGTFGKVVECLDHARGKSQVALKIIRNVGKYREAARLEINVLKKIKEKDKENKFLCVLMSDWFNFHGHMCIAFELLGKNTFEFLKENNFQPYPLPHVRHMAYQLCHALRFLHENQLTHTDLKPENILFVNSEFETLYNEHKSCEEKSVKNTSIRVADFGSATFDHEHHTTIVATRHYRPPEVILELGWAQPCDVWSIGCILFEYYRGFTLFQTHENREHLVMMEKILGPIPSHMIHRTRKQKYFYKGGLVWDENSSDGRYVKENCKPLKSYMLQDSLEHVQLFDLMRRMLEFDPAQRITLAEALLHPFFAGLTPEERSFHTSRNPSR
Assay: Kinase Profiling Assay
Format: biochemical
Settings: 100 μM peptide
assay_endpoint: CLK3(h) % activity (%)
Number only, in %; omit the unit.

Entry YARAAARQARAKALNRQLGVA (Mammalian) [MMI-0200] has what CLK3(h) % activity?
76

Entry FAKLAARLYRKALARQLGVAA [MMI-0300] has what CLK3(h) % activity?
61

Entry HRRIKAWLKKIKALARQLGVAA (Mammalian) [MMI-0500] has what CLK3(h) % activity?
76

Entry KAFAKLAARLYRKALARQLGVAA [MMI-0400] has what CLK3(h) % activity?
84

* * *

Give ULK2(h) % activity for every item shown.
Target: ULK2(h) (Homo sapiens, UniProt Q8IYT8)
Sequence (Q8IYT8 1-1036): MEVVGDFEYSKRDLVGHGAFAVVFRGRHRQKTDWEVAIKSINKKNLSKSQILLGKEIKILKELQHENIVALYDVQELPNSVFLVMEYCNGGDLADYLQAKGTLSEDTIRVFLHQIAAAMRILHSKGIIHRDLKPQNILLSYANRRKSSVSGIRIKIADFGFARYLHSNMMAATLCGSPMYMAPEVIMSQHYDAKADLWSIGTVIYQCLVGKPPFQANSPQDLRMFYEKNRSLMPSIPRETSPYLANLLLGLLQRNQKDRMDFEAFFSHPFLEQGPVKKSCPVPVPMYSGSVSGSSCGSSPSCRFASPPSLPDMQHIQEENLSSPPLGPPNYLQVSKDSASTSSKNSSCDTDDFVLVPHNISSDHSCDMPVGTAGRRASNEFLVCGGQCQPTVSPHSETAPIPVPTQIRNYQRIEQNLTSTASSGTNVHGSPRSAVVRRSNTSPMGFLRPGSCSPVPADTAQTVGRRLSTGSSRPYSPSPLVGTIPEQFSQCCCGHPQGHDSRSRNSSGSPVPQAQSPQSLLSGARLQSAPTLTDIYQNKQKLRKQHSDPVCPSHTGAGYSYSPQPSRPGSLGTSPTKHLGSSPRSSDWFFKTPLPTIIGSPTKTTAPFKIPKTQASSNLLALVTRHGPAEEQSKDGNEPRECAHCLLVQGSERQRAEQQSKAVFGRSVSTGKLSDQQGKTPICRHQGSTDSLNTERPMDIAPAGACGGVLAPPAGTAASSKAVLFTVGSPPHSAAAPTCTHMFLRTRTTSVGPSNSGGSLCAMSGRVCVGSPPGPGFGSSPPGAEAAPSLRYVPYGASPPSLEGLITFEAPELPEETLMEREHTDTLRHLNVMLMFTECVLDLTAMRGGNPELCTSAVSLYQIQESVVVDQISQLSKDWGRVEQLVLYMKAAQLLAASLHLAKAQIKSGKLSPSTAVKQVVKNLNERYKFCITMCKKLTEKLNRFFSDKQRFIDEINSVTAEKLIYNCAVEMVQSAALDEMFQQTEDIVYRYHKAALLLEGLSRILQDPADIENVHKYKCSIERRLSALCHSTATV
Test: Kinase Profiling Assay
Assay type: biochemical
Details: 100 μM peptide
Number only, in %; omit the unit.

Entry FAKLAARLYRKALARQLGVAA [MMI-0300] has what ULK2(h) % activity?
122

Entry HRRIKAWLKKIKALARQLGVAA (Mammalian) [MMI-0500] has what ULK2(h) % activity?
124

Entry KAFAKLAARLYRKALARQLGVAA [MMI-0400] has what ULK2(h) % activity?
131

Entry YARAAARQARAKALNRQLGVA (Mammalian) [MMI-0200] has what ULK2(h) % activity?
132

* * *

Biological target: Met(M1268T)(h) (Homo sapiens, UniProt P08581, M1250T)
Assay: Kinase Profiling Assay
Format: biochemical
Conditions: 100 μM peptide
assay_endpoint: Met(M1268T)(h) % activity (%)
Number only, in %; omit the unit.

Entry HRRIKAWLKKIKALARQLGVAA (Mammalian) [MMI-0500] has what Met(M1268T)(h) % activity?
239

Entry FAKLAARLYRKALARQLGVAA [MMI-0300] has what Met(M1268T)(h) % activity?
255

Entry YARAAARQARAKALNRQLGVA (Mammalian) [MMI-0200] has what Met(M1268T)(h) % activity?
143

Entry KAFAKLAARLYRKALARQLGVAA [MMI-0400] has what Met(M1268T)(h) % activity?
265

* * *

Molecular target: PKCα(h) (Homo sapiens)
Assay: Kinase Profiling Assay
Type: biochemical
Conditions: 100 μM peptide
assay_endpoint: PKCα(h) % activity (%)
Number only, in %; omit the unit.

Give the reported PKCα(h) % activity for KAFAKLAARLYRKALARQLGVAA [MMI-0400] (system: PKCα(h) (Homo sapiens)).
86

Give the reported PKCα(h) % activity for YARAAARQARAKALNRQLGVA (Mammalian) [MMI-0200] (system: PKCα(h) (Homo sapiens)).
100

Give the reported PKCα(h) % activity for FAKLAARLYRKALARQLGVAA [MMI-0300] (system: PKCα(h) (Homo sapiens)).
89

Give the reported PKCα(h) % activity for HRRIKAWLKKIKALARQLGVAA (Mammalian) [MMI-0500] (system: PKCα(h) (Homo sapiens)).
3

* * *

Biological target: ZAP-70(h) (Homo sapiens, UniProt P43403)
Sequence (P43403 1-619): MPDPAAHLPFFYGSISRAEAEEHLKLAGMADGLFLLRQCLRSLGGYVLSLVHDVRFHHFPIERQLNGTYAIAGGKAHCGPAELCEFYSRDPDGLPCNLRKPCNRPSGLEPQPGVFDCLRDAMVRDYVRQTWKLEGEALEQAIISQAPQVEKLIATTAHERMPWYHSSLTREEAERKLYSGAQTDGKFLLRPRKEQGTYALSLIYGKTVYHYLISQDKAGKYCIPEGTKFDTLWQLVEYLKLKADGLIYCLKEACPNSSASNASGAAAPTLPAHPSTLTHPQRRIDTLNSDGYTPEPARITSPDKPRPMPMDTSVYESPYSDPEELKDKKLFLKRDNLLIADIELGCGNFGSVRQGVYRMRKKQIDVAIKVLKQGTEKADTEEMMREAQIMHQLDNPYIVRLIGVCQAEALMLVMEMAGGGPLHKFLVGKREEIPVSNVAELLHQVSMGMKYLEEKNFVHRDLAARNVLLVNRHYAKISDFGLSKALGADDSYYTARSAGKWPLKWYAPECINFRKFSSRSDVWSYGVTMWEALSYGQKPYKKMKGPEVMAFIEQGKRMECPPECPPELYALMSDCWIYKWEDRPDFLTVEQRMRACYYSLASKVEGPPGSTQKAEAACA
Assay: Kinase Profiling Assay
Assay type: biochemical
Details: 100 μM peptide
assay_endpoint: ZAP-70(h) % activity

Entry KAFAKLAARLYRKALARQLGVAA [MMI-0400] has what ZAP-70(h) % activity?
33%

Entry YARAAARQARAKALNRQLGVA (Mammalian) [MMI-0200] has what ZAP-70(h) % activity?
58%

Entry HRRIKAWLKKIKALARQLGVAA (Mammalian) [MMI-0500] has what ZAP-70(h) % activity?
1%

Entry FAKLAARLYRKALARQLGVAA [MMI-0300] has what ZAP-70(h) % activity?
75%
